Please respond with reported dose excreted at 6 h for every item in the list.
PROCEDURE TEXT: Urinary recovery after intramuscular administration to mice
Type: in vivo
CONDITION NOTES: mouse, urine, im, 20 mg/kg, intramuscular dose of 20 mg/kg, 0-6 hour collection, read-out: Urine Recovery
The response must be a number in % with no trailing unit.

Please supply the value of reported dose excreted at 6 h for the item `C[C@@H](O)[C@H]1C(=O)N2C(C(=O)[O-])=C(SCC[N+]3(C)CCOCC3)C[C@H]12`
15

Please supply the value of reported dose excreted at 6 h for the item C[C@@H](O)[C@H]1C(=O)N2C(C(=O)[O-])=C(SCC[N+]3(C)CC[S+]([O-])CC3)C[C@H]12 (single isomer, unassigned)
14

Please supply the value of reported dose excreted at 6 h for the item `C[C@@H](O)[C@H]1C(=O)N2C(C(=O)[O-])=C(SCC[N+]3(C)CCN(C)CC3)C[C@H]12`
33

---

PROCEDURE TEXT: Blood levels in mice after intramuscular administration
Format: in vivo
CONDITION NOTES: mouse, blood, im; mice, i.m. 20 mg/kg, 90 min; read-out: Blood Level 90 minutes after administration
ENDPOINT: concentration at […]

Please supply the value of reported concentration at […] for the item C[C@@H](O)[C@H]1C(=O)N2C(C(=O)[O-])=C(SCC[N+]3(C)CCCC3)C[C@H]12 [Example 1]
< 600 ng/mL

---

PROCEDURE TEXT: Urinary recovery after intramuscular administration to mice
Assay type: in vivo
CONDITION NOTES: mouse, urine, im, 20 mg/kg, mice, i.m. 20 mg/kg, 6-24 hours after administration; read-out: Percentage of Dose Recovered in urine, 6-24 hours
ENDPOINT: dose excreted at 24 h (%)
The response must be a number in % with no trailing unit.

Please supply the value of reported dose excreted at 24 h for the item `C[C@@H](O)[C@H]1C(=O)N2C(C(=O)[O-])=C(SCC[N+]3(C)CCCC3)C[C@H]12`
0.1

---

PROCEDURE TEXT: Urinary recovery after intramuscular administration to mice
Format: in vivo
CONDITION NOTES: mouse, urine, im, 20 mg/kg, mice, i.m. 20 mg/kg, 0-3 hours after administration; read-out: Percentage of Dose Recovered in urine, 0-3 hours
ENDPOINT: dose excreted at 3 h (%)
The response must be a number in % with no trailing unit.

Please supply the value of reported dose excreted at 3 h for the item `C[C@@H](O)[C@H]1C(=O)N2C(C(=O)[O-])=C(SCC[N+]3(C)CCCC3)C[C@H]12`
18.8

---

Please respond with reported ED50 for every item in the list.
Test system: P. aeruginosa A-9843a
PROCEDURE TEXT: Protective effect in the intramuscular treatment of infected mice (PD50)
Format: in vivo
CONDITION NOTES: Pseudomonas aeruginosa, A9843A, im, read-out: PD50/treatment, P. aeruginosa A9843A

Please supply the value of reported ED50 for the item C[C@@H](O)[C@H]1C(=O)N2C(C(=O)[O-])=C(SCC[N+]3(C)CC[S+]([O-])CC3)C[C@H]12 (single isomer, unassigned)
> 12.5 mg/kg

Please supply the value of reported ED50 for the item `C[C@@H](O)[C@H]1C(=O)N2C(C(=O)[O-])=C(SCC[N+]3(C)CCN(C)CC3)C[C@H]12`
2.7 mg/kg

Please supply the value of reported ED50 for the item `C[C@@H](O)[C@H]1C(=O)N2C(C(=O)[O-])=C(SCC[N+]3(C)CCSCC3)C[C@H]12`
4.7 mg/kg

Please supply the value of reported ED50 for the item C[C@@H](O)[C@H]1C(=O)N2C(C(=O)O)=C(SCCN=CN)C[C@H]12 [N-Formimidoyl Thienamycin, N-formimidoyl thienamycin, reference compound]
1 mg/kg

---

Please respond with reported half-life for every item in the list.
PROCEDURE TEXT: Half-life in phosphate buffer solution
Type: physicochemical
CONDITION NOTES: phosphate buffer, pH 7.4, concentration of 10^-4 M in phosphate buffer pH 7.4 at 36.8° C.; read-out: t1/2 (solution stability) (converted)
The response must be a number in h with no trailing unit.

Please supply the value of reported half-life for the item `C[C@@H](O)[C@H]1C(=O)N2C(C(=O)[O-])=C(SCC[N+]3(C)CCN(C)CC3)C[C@H]12`
12.4

Please supply the value of reported half-life for the item `C[C@@H](O)[C@H]1C(=O)N2C(C(=O)O)=C(SCC[N+]3(C)CC[N+](C)(C)CC3)C[C@H]12`
9.8

---

PROCEDURE TEXT: Blood levels in mice after intramuscular administration
Assay type: in vivo
CONDITION NOTES: mouse, blood, im, 20 mg/kg, intramuscular dose of 20 mg/kg, read-out: Blood AUC
Please respond with reported AUC for every item in the list.
The response must be a number in ng·h/mL with no trailing unit.

Please supply the value of reported AUC for the item `C[C@@H](O)[C@H]1C(=O)N2C(C(=O)[O-])=C(SCC[N+]3(C)CCOCC3)C[C@H]12`
4800

Please supply the value of reported AUC for the item `C[C@@H](O)[C@H]1C(=O)N2C(C(=O)[O-])=C(SCC[N+]3(C)CCN(C)CC3)C[C@H]12`
7600

Please supply the value of reported AUC for the item C[C@@H](O)[C@H]1C(=O)N2C(C(=O)[O-])=C(SCC[N+]3(C)CC[S+]([O-])CC3)C[C@H]12 (single isomer, unassigned)
3100

src = patent US4536335A
